Measured values drawn from patent US12583825B2 for this set.

Tested on: MDA-MB-231 cells
test: MDA-MB-231 proliferation assay
Type: cell-based
assaySetup: Homo sapiens, 72 hours, YO-PRO-1 readout
Could you mark each record yes if its GI50 falls strictly under 0.3 µM, and no if it equals or exceeds it?

// known answers, use as guide
[
  {
    "recordSmiles": "CC1(C)/C(=N/OCCC#N)c2cc(Br)ccc2-c2ncnc(N)c21",
    "targetUnderTest": "MDA-MB-231 cells",
    "assignedCategory": "no"
  },
  {
    "recordSmiles": "CC1(C)/C(=N\\O)c2cc(Br)ccc2-c2ncnc(N)c21",
    "targetUnderTest": "MDA-MB-231 cells",
    "assignedCategory": "no"
  },
  {
    "recordSmiles": "CC1(C)/C(=N/OC[C@@H]2CNC(=O)O2)c2cc(C#N)ccc2-c2ncnc(N)c21",
    "targetUnderTest": "MDA-MB-231 cells",
    "assignedCategory": "no"
  }
]

In plain terms, does `COc1ccc2c(c1)/C(=N\OCCN)C(C)(C)c1c(N)ncnc1-2` come in under 0.3 µM for GI50?
no

In plain terms, does `CO/N=C1/c2c(ccc(OC)c2N)-c2ncnc(N)c2C1(C)C` come in under 0.3 µM for GI50?
no

In plain terms, does `N#CCCO/N=C1\c2cc(O[C@H]3CC[C@@H](N)CC3)ccc2-c2ncnc(N)c2C12CCCC2` come in under 0.3 µM for GI50?
yes

In plain terms, does `COc1ccc2c(c1)/C(=N\OC[C@@H]1CNC(=O)O1)C(C)(C)c1c(N)ncnc1-2` come in under 0.3 µM for GI50?
no

In plain terms, does `CC(F)(F)CCO/N=C1\c2cc(O[C@H]3CC[C@@H](N)CC3)ccc2-c2ncnc(N)c2C1(C)C` come in under 0.3 µM for GI50?
yes

In plain terms, does `CC(C)CO/N=C1\c2cc(O[C@H]3CC[C@H](N)CC3)ccc2-c2ncnc(N)c2C1(C)C` come in under 0.3 µM for GI50?
no

In plain terms, does `Nc1ncnc2c1C1(CCCC1)/C(=N/O)c1cc(O[C@H]3CC[C@@H](N)CC3)ccc1-2` come in under 0.3 µM for GI50?
yes

In plain terms, does `CC1(C)/C(=N/OC[C@@H]2CNC(=O)O2)c2cc(O[C@H]3CC[C@H](N)CC3)ccc2-c2ncnc(N)c21` come in under 0.3 µM for GI50?
no
